target: CXCL2_HUMAN; assay: BLI
PROPERTY MEASURED: pKd
Reminder that pKd means the negative base-10 logarithm of the concentration expressed in mol/L.

Find the recorded pKd belonging to P1156_IXORI (other) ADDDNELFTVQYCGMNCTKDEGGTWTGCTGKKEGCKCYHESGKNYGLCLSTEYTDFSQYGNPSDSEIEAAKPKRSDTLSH and report it. 7.77
